tested on: BV-2; assay: Anti-neuroinflammatory activity in LPS-induced mouse BV-2 cells assessed as inhibition of NO production pretreated for 4 hrs followed by LPS stimulation for 24 hrs by griess reagent based assay; type: functional, cell-based
readout name: IC50 (µM)

• C/C(=C\CC[C@]1(C)CCc2cc(O)cc(C)c2O1)CC/C=C(\C)C(=O)C(=O)CC(C)C = 8

[1] C/C(=C\CC[C@]1(C)CCc2cc(O)cc(C)c2O1)CC/C=C(\C)C(=O)/C=C/C(C)(C)O
[2] CC(=O)/C=C/C/C(C)=C/CC[C@]1(C)CCc2cc(O)cc(C)c2O1
Which record would sort first by descending IC50, 1 or 2 ? // output: label of the selected item
1
(1: 13 µM, 2: 2 µM)

----------
system: BV-2; assay: Anti-neuroinflammatory activity in LPS-induced mouse BV-2 cells assessed as inhibition of NO production pretreated for 4 hrs followed by LPS stimulation for 24 hrs by griess reagent based assay; assay type: functional, cell-based
readout name: IC50 (µM)

Use these answered entries as a reference point.
• C=C(CC/C=C(\C)[C@H](O)[C@@H](O)C=C(C)C)C(=O)CC[C@]1(C)CCc2cc(O)cc(C)c2O1 = 19
• CC(C)=CC(O)C(=O)/C(C)=C/[C@H](O)C/C(C)=C/CC[C@]1(C)CCc2cc(O)cc(C)c2O1 (stereo not given in full) = 6
• C/C(=C\CC[C@]1(C)CCc2cc(O)cc(C)c2O1)CC/C=C(\C)C(=O)/C=C/C(C)(C)OO = 29

[a] CC(C)=C[C@H](O)[C@@H](O)/C(C)=C/CC/C(C)=C/CC[C@]1(C)CCc2cc(O)c(C)c(C)c2O1
[b] CC(C)=CC(CO)/C(=C/CC/C(C)=C/CC[C@]1(C)CCc2cc(O)cc(C)c2O1)CO (stereo not given in full)
Which record would sort first by descending IC50, a or b ? // output: label of the selected item
a

----------
Parameter: CC50 at 24 h. Scope: all listed entries.
assay: Cytotoxicity against mouse BV-2 cells incubated for 24 hrs by MTT assay; type: toxicity, cell-based

* C/C(=C\CC[C@]1(C)CCc2cc(O)cc(C)c2O1)CC/C=C(\C)C(=O)/C=C/C(C)(C)O | > 50 µM
* C/C(=C\CC[C@]1(C)CCc2cc(O)cc(C)c2O1)CC/C=C(\C)C(=O)/C=C/C(C)(C)OO | > 50 µM
* CC(C)=CC(=O)C(=O)/C(C)=C/CC/C(C)=C/CC[C@]1(C)CCc2cc(O)cc(C)c2O1 | > 50 µM
* CC(C)=C[C@H](O)[C@@H](O)/C(C)=C/CC/C(C)=C/CC[C@]1(C)CCc2cc(O)c(C)c(C)c2O1 | > 50 µM
* CC(C)=CC(O)C(=O)/C(C)=C/[C@H](O)C/C(C)=C/CC[C@]1(C)CCc2cc(O)cc(C)c2O1 (stereo not given in full) | > 50 µM
* C/C(=C\CC[C@]1(C)CCc2cc(O)cc(C)c2O1)CC/C=C(\C)C(=O)C(=O)CC(C)C | > 50 µM

Please look up its CC50 at 24 h: CC(C)=CC(=O)C/C(C)=C/CC/C(C)=C/CC[C@]1(C)CCc2cc(O)cc(C)c2O1
> 50 µM

Please look up its CC50 at 24 h: CC(C)=CC(CO)/C(=C/CC/C(C)=C/CC[C@]1(C)CCc2cc(O)cc(C)c2O1)CO (stereo not given in full)
> 50 µM

Please look up its CC50 at 24 h: CC(=O)/C=C/C/C(C)=C/CC[C@]1(C)CCc2cc(O)cc(C)c2O1
> 50 µM

Please look up its CC50 at 24 h: C=C(CC/C=C(\C)[C@H](O)[C@@H](O)C=C(C)C)C(=O)CC[C@]1(C)CCc2cc(O)cc(C)c2O1
> 50 µM
